molecular target: UniProt P30556; assay: AGTR1 antagonism selectivity check – cell-based, CHO-K1 PathHunter, luminescence, selectivity assay for APJ antagonist project, SAR follow-up (AID 488810); conditions: CHO-K1 AGTR1 PathHunter beta-arrestin, antagonist mode;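 note: agonist challenge with angiotensin II at 50 nM final near its EC80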
Activity calls are given as the source filed them.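 Rule for the calls: active = compounds with IC50 below 20 µM; inactive = the rest.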
Possible outcomes: Y (active), N (inactive)

| compound | category |
| --- | --- |
| O=C(Oc1coc(CSc2ncccn2)cc1=O)c1ccc(F)cc1 | N |
| O=c1cc(CCl)occ1O | N |
| Cc1cc(C)nc(SCc2cc(=O)c(OC(=O)c3ccc(C)c([N+](=O)[O-])c3)co2)n1 | N |
| CC1(C)CC2(CC(c3ccccc3Cl)c3ccc(O)cc3O2)NC(=S)N1 (stereo not drawn) | N |
| O=C1Nc2ccccc2C1=Nc1ccc(F)cc1 | Y |
| CNC(=O)c1nnsc1S(=O)(=O)c1ccc(Cl)cc1 | Y |
| Cc1ccccc1NCC(O)c1ccc(Cl)cc1 (stereo not drawn) | N |
| CCOc1ccc(N=C2C(=O)Nc3ccc(C)c(Br)c32)cc1 | Y |
| Cc1ccnc(S(=O)(=O)Cc2cc(=O)c(OC(=O)c3ccc(Cl)c([N+](=O)[O-])c3)co2)n1 | N |
| O=C(CNc1ccccc1C(=O)O)c1ccccc1 | Y |
| O=C(Oc1coc(CSc2ncccn2)cc1=O)c1ccc(S(=O)(=O)N2CCOCC2)cc1 | N |
| CCOc1ccc(C(=O)Oc2coc(CSc3ncccn3)cc2=O)cc1 | N |
| Cc1ccnc(SCc2cc(=O)c(OC(=O)c3ccc(C)c([N+](=O)[O-])c3)co2)n1 | N |
| Cc1cc(C)nc(SCc2cc(=O)c(OC(=O)c3cc(Cl)ccc3[N+](=O)[O-])co2)n1 | N |
| COc1cccc(C(=O)Oc2coc(CSc3nccc(C)n3)cc2=O)c1 | N |
| O=C(Oc1coc(CSc2ncccn2)cc1=O)c1ccc(S(=O)(=O)N2CCCCC2)cc1 | N |
| FC(F)(F)c1cccc(Sc2nc(-c3ccccc3)nnc2C(F)(F)F)c1 | Y |
| Cc1cccc2c1NC(=O)C2=Nc1ccc(Cl)cc1 | Y |
| O=C(O)CN1C(=O)C(=O)c2ccccc21 | N |
| C=CCOc1ccc(CSc2nc(C)cc(C)n2)cc1Cl | N |
| O=C(Oc1coc(CSc2ncccn2)cc1=O)c1cc(Cl)ccc1[N+](=O)[O-] | N |
| O=C(Oc1coc(CSc2ncccn2)cc1=O)c1cc([N+](=O)[O-])ccc1Cl | N |
| CCC[N+](CC#Cc1ccccc1)(CCC)CC(=O)c1ccc(Cl)cc1 | N |

====

biological target: Type-1 angiotensin II receptor (Homo sapiens) (UniProt P30556); experiment: AGTR1 antagonism selectivity check – cell-based, CHO-K1 PathHunter, luminescence, selectivity assay for APJ antagonist project, SAR follow-up (AID 488810); conditions: CHO-K1 AGTR1 PathHunter beta-arrestin, antagonist mode;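 note: agonist challenge with angiotensin II at 50 nM final near its EC80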
Sequence (P30556 whole entry, looked up): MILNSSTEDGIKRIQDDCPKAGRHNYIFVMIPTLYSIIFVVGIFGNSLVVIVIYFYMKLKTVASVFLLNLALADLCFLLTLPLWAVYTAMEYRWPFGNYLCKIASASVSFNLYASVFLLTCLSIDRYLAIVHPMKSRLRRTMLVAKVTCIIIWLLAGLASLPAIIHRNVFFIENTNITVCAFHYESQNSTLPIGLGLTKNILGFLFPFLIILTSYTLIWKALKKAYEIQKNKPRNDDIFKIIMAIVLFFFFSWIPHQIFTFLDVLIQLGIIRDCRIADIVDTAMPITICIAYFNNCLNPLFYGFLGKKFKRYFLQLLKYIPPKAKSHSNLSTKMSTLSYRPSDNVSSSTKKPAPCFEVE
Calls of active or inactive are those of the source.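 The calls were made as follows: active = compounds with IC50 below 20 µM; inactive = the rest.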
Possible outcomes: active, inactive

| compound | category |
| --- | --- |
| O=C(Oc1coc(CSc2ncccn2)cc1=O)c1ccc(Cl)cc1 | inactive |
| O=C(Oc1coc(CSc2ncccn2)cc1=O)c1ccc(Cl)c([N+](=O)[O-])c1 | inactive |
| C=CCSC1=NC2(CC(c3ccc(C)cc3)c3c(C)cc(OC(C)=O)cc3O2)CC(C)(C)N1 (stereo unspecified) | inactive |
| CC1(C)CC2(CC(c3ccccc3Cl)c3ccc(OC(=O)c4ccccc4)cc3O2)NC(=S)N1 (stereo unspecified) | inactive |
| O=C(Nc1nc2ccc(F)cc2s1)c1ccccn1 | active |
| O=C(COC(=O)c1cnccn1)c1ccc(Cl)c([N+](=O)[O-])c1 | active |
| O=C(CNS(=O)(=O)c1ccccc1)OCC(=O)c1cccc([N+](=O)[O-])c1 | inactive |
| Cc1cccc(N=C2C(=O)Nc3c(Cl)cccc32)c1 | active |
| O=C(COC(=O)c1cccnc1)c1ccc(Cl)cc1 | inactive |
| Cc1ccc(C)c(NCC(O)c2ccc(Cl)cc2)c1 (stereo unspecified) | inactive |
| CC(C)N1CCc2c(sc(NC(=O)c3cc(-c4cccs4)nc4ccccc34)c2C(N)=O)C1 | inactive |

====

target: Type-1 angiotensin II receptor (Homo sapiens); assay: AGTR1 antagonism selectivity check – cell-based, CHO-K1 PathHunter, luminescence, selectivity assay for APJ antagonist project, SAR follow-up (AID 488810); details: CHO-K1 AGTR1 PathHunter beta-arrestin, antagonist mode;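 note: agonist challenge with angiotensin II at 50 nM final near its EC80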
Calls of active or inactive are those of the source.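 How the source made its calls: active means compounds with IC50 below 20 µM; inactive means the rest.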

| compound | study-system | IC50 |
| --- | --- | --- |
| CC1(C)CC2(CC(c3ccc(Cl)cc3)c3ccc(O)cc3O2)NC(=S)N1 (stereo not given) | Type-1 angiotensin II receptor (Homo sapiens) | inactive |
| Cc1cccc(C(=O)Oc2coc(CSc3nccc(C)n3)cc2=O)c1 | Type-1 angiotensin II receptor (Homo sapiens) | > 79 µM (inactive) |
| Cc1ccnc(SCc2cc(=O)c(OC(=O)c3ccccc3C)co2)n1 | Type-1 angiotensin II receptor (Homo sapiens) | > 79 µM (inactive) |
| Cc1ccnc(SCc2cc(=O)c(OC(=O)c3ccco3)co2)n1 | Type-1 angiotensin II receptor (Homo sapiens) | > 79 µM (inactive) |
| Cc1ccnc(SCc2cc(=O)c(OCc3ccccc3)co2)n1 | Type-1 angiotensin II receptor (Homo sapiens) | > 79 µM (inactive) |
| Cc1ccnc(SCc2cc(=O)c(OC(=O)c3cccc([N+](=O)[O-])c3)co2)n1 | Type-1 angiotensin II receptor (Homo sapiens) | > 79 µM (inactive) |
| O=C(Oc1coc(CSc2ncccn2)cc1=O)c1ccc(Br)cc1 | Type-1 angiotensin II receptor (Homo sapiens) | > 79 µM (inactive) |
| Cc1ccnc(SCc2cc(=O)c(OC(=O)c3ccccc3Cl)co2)n1 | Type-1 angiotensin II receptor (Homo sapiens) | > 79 µM (inactive) |
| CC(=O)Nc1ccc(NC(=O)CCC(=O)OCC(=O)c2ccc(C)c([N+](=O)[O-])c2)cc1 | Type-1 angiotensin II receptor (Homo sapiens) | inactive |
| Cc1ccccc1C1CC2(CC(C)(C)NC(=S)N2)Oc2cc(O)c(Cl)cc21 (stereo not given) | Type-1 angiotensin II receptor (Homo sapiens) | > 79 µM (inactive) |

====

molecular target: Type-1 angiotensin II receptor (Homo sapiens); experiment: AGTR1 antagonism selectivity check – cell-based, CHO-K1 PathHunter, luminescence, selectivity assay for APJ antagonist project, SAR follow-up (AID 488810); conditions: CHO-K1 AGTR1 PathHunter beta-arrestin, antagonist mode;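 note: agonist challenge with angiotensin II at 50 nM final near its EC80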
Active and inactive are the calls of the source.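 The calls were made as follows: active = compounds with IC50 below 20 µM; inactive = the rest.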
Possible outcomes: active, inactive

| compound | category |
| --- | --- |
| O=C(Oc1coc(CSc2ncccn2)cc1=O)c1ccc(S(=O)(=O)N2CCCC2)cc1 | inactive |
| Cc1ccnc(SCc2cc(=O)c(OC(=O)c3ccc(OC(F)(F)F)cc3)co2)n1 | inactive |
| Cc1cccc(C2CC3(CC(C)(C)NC(=O)N3)Oc3cc(O)c(Cl)cc32)c1 (stereo unspecified) | inactive |
| Cc1cc(C)nc(SCc2ccc(OC(=O)c3ccccc3)c(Cl)c2)n1 | inactive |
| COc1ccc(C(=O)CNc2cccc(F)c2)cc1 | active |
| CC1(C)CC2(CC(c3ccccc3F)c3cc(Cl)c(O)cc3O2)NC(=S)N1 (stereo unspecified) | inactive |
| C=CCOc1cccc(CSc2nccc(C)n2)c1 | inactive |
| COc1cc(C(=O)Oc2coc(CSc3ncccn3)cc2=O)c([N+](=O)[O-])cc1OC | inactive |
| Cc1ccnc(SCc2cccc(O)c2)n1 | inactive |
| CCOC(=O)C1=NNC(C(=O)c2ccc(Cl)cc2)C1c1ccccc1 (stereo unspecified) | inactive |
| COc1ccc(C(=O)Oc2coc(CSc3ncccn3)cc2=O)cc1 | inactive |

====

biological target: UniProt:P30556; assay: AGTR1 antagonism selectivity check – cell-based, CHO-K1 PathHunter, luminescence, selectivity assay for APJ antagonist project, SAR follow-up (AID 488810); conditions: CHO-K1 AGTR1 PathHunter beta-arrestin, antagonist mode;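 note: agonist challenge with angiotensin II at 50 nM final near its EC80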
Activity calls are given as the source filed them.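 How the source made its calls: active means compounds with IC50 below 20 µM; inactive means the rest.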

| compound | study-system | IC50 |
| --- | --- | --- |
| CC(C(=O)OCC(=O)c1cccc([N+](=O)[O-])c1)N1C(=O)C2C3C=CC(C3)C2C1=O (stereo not given) | UniProt:P30556 | inactive |
| COc1ccc(NC2C(=O)Nc3ccccc32)cc1 (stereo not given) | UniProt:P30556 | > 79 µM (inactive) |
| Cc1ccc(C(=O)Oc2coc(CSc3nccc(C)n3)cc2=O)cc1 | UniProt:P30556 | > 79 µM (inactive) |
| Cc1ccnc(SCc2cc(=O)c(OC(=O)c3cccs3)co2)n1 | UniProt:P30556 | > 79 µM (inactive) |
| CC1(C)CC2(CC(c3ccccc3Cl)c3cc(Cl)c(OC(=O)C4CC4)cc3O2)NC(=S)N1 (stereo not given) | UniProt:P30556 | > 79 µM (inactive) |
| O=C(Oc1coc(CSc2ncccn2)cc1=O)c1ccc([N+](=O)[O-])cc1 | UniProt:P30556 | > 79 µM (inactive) |
| Cn1c(=O)c(C(=S)NC(=O)C2CC2)c(N)n(Cc2ccccc2)c1=O | UniProt:P30556 | inactive |
| Cc1cccc(C2CC3(CC(C)(C)NC(=S)N3)Oc3cc(O)c(Cl)cc32)c1 (stereo not given) | UniProt:P30556 | inactive |
| Cc1ccnc(SCc2cc(=O)c(OC(=O)c3ccc(F)cc3)co2)n1 | UniProt:P30556 | > 79 µM (inactive) |
| Cc1cc(C)nc(SCc2cc(=O)c(OC(=O)c3cc([N+](=O)[O-])ccc3Cl)co2)n1 | UniProt:P30556 | inactive |
